Listing: IC50 of selected compounds
TARGET_UNDER_TEST: EGFR (d746-750) (Homo sapiens (Human), UniProt P00533, DEL746-750)
Sequence (P00533 other isoform, or with tags, fused parts or gaps del 1-668/del 746-750 limits assumed): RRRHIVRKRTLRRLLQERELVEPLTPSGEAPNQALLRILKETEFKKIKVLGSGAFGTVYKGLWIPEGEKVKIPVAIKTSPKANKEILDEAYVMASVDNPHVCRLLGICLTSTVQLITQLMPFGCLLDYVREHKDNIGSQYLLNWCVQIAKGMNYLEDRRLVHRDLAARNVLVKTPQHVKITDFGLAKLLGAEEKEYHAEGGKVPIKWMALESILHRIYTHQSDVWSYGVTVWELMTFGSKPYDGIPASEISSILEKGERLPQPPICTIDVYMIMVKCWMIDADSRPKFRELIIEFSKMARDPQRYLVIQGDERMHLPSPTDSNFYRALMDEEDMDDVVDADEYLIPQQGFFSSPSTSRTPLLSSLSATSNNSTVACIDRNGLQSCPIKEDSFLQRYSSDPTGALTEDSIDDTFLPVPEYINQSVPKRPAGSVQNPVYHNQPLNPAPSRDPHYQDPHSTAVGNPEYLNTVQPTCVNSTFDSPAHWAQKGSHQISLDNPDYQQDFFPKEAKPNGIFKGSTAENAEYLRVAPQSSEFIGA
ASSAY_DETAILS: Mobility Shift Assay, in vitro enzyme-inhibiting activity, EGFR (d746-750)
Type: biochemical
CONDITION_DETAILS: Table 5; Km ATP
Quick note: give the figure in nM, leave out the unit.

{"LINE_NOTATION": "C=CC(=O)Nc1cccc(Nc2nc(Nc3ccc(C4=CCN(C(C)=O)CC4)cc3OC)ncc2C(F)(F)F)c1", "UNITS_SYMBOL": "nM", "IC50": 51.4}
{"LINE_NOTATION": "C=CC(=O)Nc1cccc(Nc2nc(Nc3ccc(C4CCN(C(C)=O)CC4)cc3OC)ncc2C(F)(F)F)c1", "UNITS_SYMBOL": "nM", "IC50": 24.2}

Given the entry `C=CC(=O)Nc1cccc(Nc2nc(Nc3ccc(N4CCN(C(C)=O)CC4)cc3OC)ncc2C(F)(F)F)n1` , report its measured IC50.
20.3

---

TARGET_UNDER_TEST: EGFR L858R (Homo sapiens (Human), UniProt P00533, L858R)
Sequence (P00533 25-1210 L858R): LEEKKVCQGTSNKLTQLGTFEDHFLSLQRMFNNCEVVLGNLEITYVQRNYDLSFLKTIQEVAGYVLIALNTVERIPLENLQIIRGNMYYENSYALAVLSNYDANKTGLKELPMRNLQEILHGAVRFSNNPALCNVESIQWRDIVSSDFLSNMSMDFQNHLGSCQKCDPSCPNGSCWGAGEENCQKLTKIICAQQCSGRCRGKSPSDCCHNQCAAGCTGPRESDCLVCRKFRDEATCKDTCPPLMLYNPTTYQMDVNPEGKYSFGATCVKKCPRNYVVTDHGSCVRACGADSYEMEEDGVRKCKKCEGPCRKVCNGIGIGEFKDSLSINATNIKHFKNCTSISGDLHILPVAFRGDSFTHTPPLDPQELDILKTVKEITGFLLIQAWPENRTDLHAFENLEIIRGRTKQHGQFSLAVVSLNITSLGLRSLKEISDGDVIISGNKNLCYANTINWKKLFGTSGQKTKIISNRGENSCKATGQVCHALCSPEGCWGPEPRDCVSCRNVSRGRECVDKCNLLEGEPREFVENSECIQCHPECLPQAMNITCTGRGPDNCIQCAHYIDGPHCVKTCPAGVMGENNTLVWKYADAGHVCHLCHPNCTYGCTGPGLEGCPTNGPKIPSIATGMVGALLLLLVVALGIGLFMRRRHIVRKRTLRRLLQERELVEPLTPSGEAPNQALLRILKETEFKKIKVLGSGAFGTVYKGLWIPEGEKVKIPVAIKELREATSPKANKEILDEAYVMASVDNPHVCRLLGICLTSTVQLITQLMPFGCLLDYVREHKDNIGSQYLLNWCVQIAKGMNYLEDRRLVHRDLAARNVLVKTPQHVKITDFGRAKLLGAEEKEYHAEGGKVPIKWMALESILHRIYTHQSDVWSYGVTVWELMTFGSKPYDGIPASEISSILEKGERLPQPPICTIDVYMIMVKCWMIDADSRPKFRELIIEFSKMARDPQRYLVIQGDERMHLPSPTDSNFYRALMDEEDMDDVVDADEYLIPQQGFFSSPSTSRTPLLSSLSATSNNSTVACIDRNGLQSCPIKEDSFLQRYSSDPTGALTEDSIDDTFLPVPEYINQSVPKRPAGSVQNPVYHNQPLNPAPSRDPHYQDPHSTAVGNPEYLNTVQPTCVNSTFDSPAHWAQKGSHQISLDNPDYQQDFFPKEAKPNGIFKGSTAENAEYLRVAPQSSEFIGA
ASSAY_DETAILS: Mobility Shift Assay, in vitro enzyme-inhibiting activity, EGFR L858R
Type: biochemical
CONDITION_DETAILS: Table 7; ratio of IC50
Listing: Selectivity WT/L858R of selected compounds
Number only, please.

{"COMPOUND": "C=CC(=O)Nc1cccc(Nc2nc(Nc3ccc(C4CCNC(=O)C4)cc3OC)ncc2C(F)(F)F)c1 (centres unmarked) [Compound 22]", "TARGET_UNDER_TEST": "EGFR L858R (Homo sapiens (Human), UniProt P00533, L858R)", "Selectivity WT/L858R": 6.4}
{"COMPOUND": "C=CC(=O)Nc1cccc(Nc2nc(Nc3ccc(N4CC5(CN(C(C)=O)C5)C4)cc3OC)ncc2C(F)(F)F)c1 [Compound 31]", "TARGET_UNDER_TEST": "EGFR L858R (Homo sapiens (Human), UniProt P00533, L858R)", "Selectivity WT/L858R": 5.4}
{"COMPOUND": "C=CC(=O)Nc1cccc(Nc2nc(Nc3ccc(C4CCN(C(C)=O)CC4)cc3OC)ncc2C(F)(F)F)n1 [Compound 4]", "TARGET_UNDER_TEST": "EGFR L858R (Homo sapiens (Human), UniProt P00533, L858R)", "Selectivity WT/L858R": 5.2}

Record lookup: for EGFR L858R (Homo sapiens (Human), UniProt P00533, L858R), what Selectivity WT/L858R belongs to C=CC(=O)Nc1cccc(Nc2nc(Nc3ccc(N4C[C@H]5CN(C(C)=O)C[C@H]5C4)cc3OC)ncc2C(F)(F)F)c1 [Compound 9-1] ?
4.7

Do the same for C=CC(=O)Nc1cccc(Nc2nc(Nc3ccc(C4CCN(C(=O)CC)CC4)cc3OC)ncc2C(F)(F)F)c1 [Compound 24] please
6.1

---

TARGET_UNDER_TEST: EGFR T790M (Homo sapiens (Human), UniProt P00533, T790M)
Sequence (P00533 25-1210 T790M): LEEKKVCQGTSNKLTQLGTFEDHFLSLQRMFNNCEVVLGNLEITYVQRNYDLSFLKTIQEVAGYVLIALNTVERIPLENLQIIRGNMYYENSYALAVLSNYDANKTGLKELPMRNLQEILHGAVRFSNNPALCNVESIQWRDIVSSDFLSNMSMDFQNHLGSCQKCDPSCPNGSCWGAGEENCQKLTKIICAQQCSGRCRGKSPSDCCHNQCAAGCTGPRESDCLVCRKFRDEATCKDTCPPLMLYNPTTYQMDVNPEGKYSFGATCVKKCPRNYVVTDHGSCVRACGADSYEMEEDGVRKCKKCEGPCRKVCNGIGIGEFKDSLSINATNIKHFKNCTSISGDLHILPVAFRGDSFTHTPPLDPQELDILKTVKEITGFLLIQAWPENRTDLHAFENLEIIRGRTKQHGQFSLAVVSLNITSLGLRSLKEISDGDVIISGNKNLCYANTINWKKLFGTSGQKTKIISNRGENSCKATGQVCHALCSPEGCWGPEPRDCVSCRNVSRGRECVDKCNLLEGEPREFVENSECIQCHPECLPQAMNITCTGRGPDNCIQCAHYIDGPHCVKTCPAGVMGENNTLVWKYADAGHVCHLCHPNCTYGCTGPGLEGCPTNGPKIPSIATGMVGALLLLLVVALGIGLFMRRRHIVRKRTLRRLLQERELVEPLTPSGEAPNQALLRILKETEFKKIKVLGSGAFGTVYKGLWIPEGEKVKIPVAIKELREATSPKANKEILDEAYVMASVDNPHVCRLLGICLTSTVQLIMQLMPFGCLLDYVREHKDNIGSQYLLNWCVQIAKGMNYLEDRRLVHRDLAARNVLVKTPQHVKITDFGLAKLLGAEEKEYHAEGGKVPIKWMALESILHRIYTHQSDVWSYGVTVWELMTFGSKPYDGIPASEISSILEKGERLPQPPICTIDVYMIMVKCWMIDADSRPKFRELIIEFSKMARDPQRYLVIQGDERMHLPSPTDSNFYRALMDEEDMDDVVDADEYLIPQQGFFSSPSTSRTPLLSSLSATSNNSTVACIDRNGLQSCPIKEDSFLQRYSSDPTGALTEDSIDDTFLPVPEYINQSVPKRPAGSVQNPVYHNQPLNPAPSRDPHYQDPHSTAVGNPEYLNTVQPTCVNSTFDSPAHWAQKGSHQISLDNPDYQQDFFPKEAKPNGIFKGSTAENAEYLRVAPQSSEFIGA
ASSAY_DETAILS: Mobility Shift Assay, in vitro enzyme-inhibiting activity, EGFR T790M
Assay type: biochemical
CONDITION_DETAILS: Table 7; ratio of IC50
QUANTITY: Selectivity (WT/T790M)
Number only, please.

Answered examples (4):
{"COMPOUND": "C=CC(=O)Nc1cccc(Nc2nc(Nc3ccc(C4CCN(C(C)=O)CC4)cc3OC)ncc2C(F)(F)F)n1", "Selectivity (WT/T790M)": 58.8}
{"COMPOUND": "C=CC(=O)Nc1cccc(Nc2nc(Nc3ccc(C4CCNC(=O)C4)cc3OC)ncc2C(F)(F)F)c1 (centres unmarked)", "Selectivity (WT/T790M)": 67.2}
{"COMPOUND": "C=CC(=O)Nc1cccc(Nc2nc(Nc3ccc(C4CCN(C(=O)CC)CC4)cc3OC)ncc2C(F)(F)F)c1", "Selectivity (WT/T790M)": 73.2}
{"COMPOUND": "C=CC(=O)Nc1cccc(Nc2nc(Nc3ccc(N4CC5(CN(C(C)=O)C5)C4)cc3OC)ncc2C(F)(F)F)c1", "Selectivity (WT/T790M)": 59.2}

Now take the following compound into account.
Given the entry `C=CC(=O)Nc1cccc(Nc2nc(Nc3ccc(N4C[C@H]5CN(C(C)=O)C[C@H]5C4)cc3OC)ncc2C(F)(F)F)c1` , report its measured Selectivity (WT/T790M).
62.2
